Consider the following compounds and their measured pEC50 readings.
Molecular target: human FPR2 (Homo sapiens (Human))
Sequence (P25090 whole entry): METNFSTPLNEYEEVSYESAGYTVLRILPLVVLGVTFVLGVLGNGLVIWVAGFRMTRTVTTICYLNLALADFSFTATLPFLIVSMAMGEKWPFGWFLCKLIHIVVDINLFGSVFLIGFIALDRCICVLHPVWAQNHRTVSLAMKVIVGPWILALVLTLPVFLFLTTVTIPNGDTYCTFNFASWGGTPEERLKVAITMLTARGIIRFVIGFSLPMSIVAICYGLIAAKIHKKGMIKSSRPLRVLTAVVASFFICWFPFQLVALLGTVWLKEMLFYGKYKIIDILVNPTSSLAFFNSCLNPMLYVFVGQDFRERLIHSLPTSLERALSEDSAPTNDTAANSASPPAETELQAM
Assay: FPR2 cyclic adenosine monophosphate (cAMP) assay
Assay type: cell-based
Settings: CHO cells overexpressing human FPR2; forskolin 5 μM, IBMX 200 μM; inhibition of cAMP production, HTRF; read-out: hFPR2 cAMP2 EC50
Method: N-formyl peptide receptors (FPRs) are a family of chemo attractant receptors that facilitate leukocyte response during inflammation. FPRs belong to the seven-transmembrane G protein-coupled receptor superfamily and are linked to inhibitory G-proteins (Gi). […] FPR2 and FPR1 Cyclic Adenosine Monophosphate (cAMP) Assays. […] The level of intracellular cAMP was determined using the HTRF HiRange cAMP assay reagent kit (Cisbio) according to manufacturer's instruction. […]
pEC50: −log10 of the molar value.

compound	pEC50
COCCn1cccc(N2C[C@@H](c3ccc(OC)cc3)[C@H](NC(=O)NC3CCc4cc(Cl)ccc4C3)C2=O)c1=O (some centres unmarked) [Example 5]	9.70
COCCn1ccc(C)c(N2C[C@@H](c3c(F)cc(OC)cc3F)[C@H](NC(=O)NC3CCc4cc(Cl)ccc4C3)C2=O)c1=O (some centres unmarked)	8.57
COc1cc(F)c([C@@H]2CN(c3c(C)ccn(CCO)c3=O)C(=O)[C@H]2NC(=O)NC2CCc3cc(OC)ccc3C2)c(F)c1 (single isomer, unassigned) [Example 84]	8.85
COc1cc(F)c([C@@H]2CN(c3nccc(NC4CCOCC4)c3C(F)(F)F)C(=O)[C@H]2NC(=O)N[C@H]2CC[C@H](C(F)F)CC2)c(F)c1	7.57
COc1cc(F)c([C@@H]2CN(c3ncccc3C(F)(F)F)C(=O)[C@H]2NC(=O)NC2CCc3cc(OC)ccc3C2)c(F)c1 (some centres unmarked) [Example 46]	8.15
